Some compounds, each annotated with its measured melting point.
Report as a plain number; the unit °C is understood.

| line notation | melting point [°C] |
| --- | --- |
| C=CS(=O)(=O)Nc1c(C)cc([N+](=O)[O-])cc1C | 132 |

According to the records, this compound S=P1(c2ccccc2)CCCC1 displays melting point of 74

* * *

measured parameter: melting point

| compound | melting point |
| --- | --- |
| CC(C)CCCC(C)C1CCC2C3CCC4CC(OC=O)CCC4(C)C3CCC12C (centres undefined) | 107 to 108 °C |
| CC(=O)OCCOc1ccc2oc3cc(-c4nnn[nH]4)ccc3c(=O)c2c1 | 216 to 218 °C |

According to the records, this compound O=S(=O)(C(=Cc1ccc(Cl)cc1)SC(=Cc1ccc(Cl)cc1)S(=O)(=O)c1ccccc1)c1ccccc1 displays melting point of 251 °C

According to the records, this compound CC(C)OC(=O)c1cc(-n2c(=O)c3c(n(C)c2=O)CCC3)c(F)cc1Cl displays melting point of 111 to 113 °C
